# subject.of.test: Pdr3 (UniProt P33200)
# Sequence: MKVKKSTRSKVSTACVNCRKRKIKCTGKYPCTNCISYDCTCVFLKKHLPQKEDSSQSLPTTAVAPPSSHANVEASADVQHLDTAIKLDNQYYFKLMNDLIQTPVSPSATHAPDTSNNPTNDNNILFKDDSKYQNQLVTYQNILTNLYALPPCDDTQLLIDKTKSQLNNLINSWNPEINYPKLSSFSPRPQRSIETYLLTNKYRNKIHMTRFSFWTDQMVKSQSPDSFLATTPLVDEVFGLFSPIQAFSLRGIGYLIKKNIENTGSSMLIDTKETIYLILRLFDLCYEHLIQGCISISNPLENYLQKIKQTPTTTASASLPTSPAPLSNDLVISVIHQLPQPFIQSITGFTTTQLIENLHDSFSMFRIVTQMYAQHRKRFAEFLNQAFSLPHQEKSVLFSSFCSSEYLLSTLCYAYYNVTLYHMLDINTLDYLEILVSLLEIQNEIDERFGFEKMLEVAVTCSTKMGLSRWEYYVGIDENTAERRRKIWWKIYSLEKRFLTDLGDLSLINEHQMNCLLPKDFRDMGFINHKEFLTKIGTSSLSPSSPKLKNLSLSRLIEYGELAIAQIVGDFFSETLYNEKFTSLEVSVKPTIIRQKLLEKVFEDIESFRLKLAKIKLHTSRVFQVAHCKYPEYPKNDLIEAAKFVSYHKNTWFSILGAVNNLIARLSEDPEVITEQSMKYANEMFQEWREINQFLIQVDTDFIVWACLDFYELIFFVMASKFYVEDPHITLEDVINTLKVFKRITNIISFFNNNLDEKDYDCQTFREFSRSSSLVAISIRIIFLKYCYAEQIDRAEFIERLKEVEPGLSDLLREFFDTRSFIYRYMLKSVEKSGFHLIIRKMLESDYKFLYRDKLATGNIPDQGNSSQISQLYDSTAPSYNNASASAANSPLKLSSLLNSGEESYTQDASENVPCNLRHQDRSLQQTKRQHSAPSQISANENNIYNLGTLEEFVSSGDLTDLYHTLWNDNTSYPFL
# protocol.details: PBM E-score (8-mer binding enrichment) (E-score (-0.5 to 0.5)); higher = stronger / more preferred TF binding
# applied.conditions: protein concentration: 200 nM; construct: GST-full length
In all, about 33,000 sequences were measured (“E-score (-0.5 to 0.5)”: median about -0.035, highest 2% from about 0.35 on). The entries come from a sample that favours the highest values as a whole.
Give criterion met when the value for PBM E-score is at least 0.02. Give criterion not met when it is less.

Field: example entries. Status: answers known.
sequence.record: GGGGAACC
subject.of.test: Pdr3 (UniProt P33200)
answer.label: criterion not met

sequence.record: ACAGAGCC
subject.of.test: Pdr3 (UniProt P33200)
answer.label: criterion not met

sequence.record: ACTCGGAT
subject.of.test: Pdr3 (UniProt P33200)
answer.label: criterion met

sequence.record: CCTCGGAC
subject.of.test: Pdr3 (UniProt P33200)
answer.label: criterion met

Req: // inclusive: PBM E-score at least 0.02? input: GAGGAACC
Resp: criterion met
